Target: rat Adrenergic Receptor, Alpha 2 (Adra2), Non-selective Binding, Adra2a (gene 25083)
Protocol text: NVS_GPCR_rAdra2_NonSelective: NovaScreen (NVS) G Protein-Coupled Receptor Assay for rat Adrenergic Receptor, Alpha 2 (Adra2), Non-selective Binding (AID 2283299)
Results filed as inconclusive are left out. Active and inactive are the calls of the source. How the source made its calls: active means hit-call score of the fitted dose curve at least 0.9, where 1 is the maximum; inconclusive means response in the unintended direction; inactive means score below 0.9.
Reported endpoint: AC50

Some compounds with recorded AC50:
1) COCCOc1cc2cc(C(=O)NC3CCN(C(C)C)CC3)n(CC(=O)Nc3ccc(Cl)cn3)c2cn1    10.1 µM (active)
2) Nc1ccc(Nc2ccccc2)cc1    25 µM (active)
3) CCN(C(=O)c1cc(C)cc(OC[C@H](C)Nc2ccncc2)c1)C(C)C    4.14 µM (active)

From here, focus on the item given below.
Sample COc1cccc(-c2ccc(/C=C\CN3CCCCCC3)cc2Cl)c1 — what was its AC50? 2.99 µM (active)

* * *

Protocol text: ACEA_AR_agonist_AUC_viability: ACEA Biosciences xCELLigence Real-Time Cell Analysis on Androgen Receptor Agonism for Viability (AID 2283775)
Results filed as inconclusive are left out. Activity calls are given as the source filed them. The calls were made as follows: active = hit-call score of the fitted dose curve at least 0.9, where 1 is the maximum; inconclusive = response in the unintended direction; inactive = score below 0.9.
Classes to choose from: active, inactive

1) CCCCCCCCO    inactive

For COc1ccc2sc(C(=O)Nc3nnn[nH]3)c(OC(C)C)c2c1 , which call appears in the assay record? active

How was Cc1[nH]cnc1C[C@H]1CCc2c(C)c3ccccc3n2C1=O classified in this test? active

Status in this test for CC[C@H]1OC(=O)[C@H](C)[C@@H](O[C@H]2C[C@@](C)(OC)[C@@H](O)[C@H](C)O2)[C@H](C)[C@@H](O[C@@H]2O[C@H](C)C[C@H](N(C)C)[C@H]2O)[C@](C)(O)C[C@@H](C)C(=O)[C@H](C)[C@@H](O)[C@]1(C)O ? inactive

Assay result, entry O=C(OC[C@H]1O[C@@H](OC(=O)c2cc(O)c(O)c(OC(=O)c3cc(O)c(O)c(O)c3)c2)[C@H](OC(=O)c2cc(O)c(O)c(OC(=O)c3cc(O)c(O)c(O)c3)c2)[C@@H](OC(=O)c2cc(O)c(O)c(OC(=O)c3cc(O)c(O)c(O)c3)c2)[C@@H]1OC(=O)c1cc(O)c(O)c(OC(=O)c2cc(O)c(O)c(O)c2)c1)c1cc(O)c(O)c(OC(=O)c2cc(O)c(O)c(O)c2)c1 — outcome? active

How did this test come out for CC1(C)C(=O)N(Br)C(=O)N1Br ? inactive

* * *

Protocol text: APR_HepG2_CellCycleArrest_24hr: Apredica 24-hour HepG2 Assay for Cell Cycle Arrest (AID 2282905);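 further: cell cycle arrest scored as ratio of 2N to 4N nuclear DNA content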
Details: imaging, actives raise or lower the signal
The source made the active and inactive calls. The calls were made as follows: active = hit-call score of the fitted dose curve at least 0.9, where 1 is the maximum; inactive = score below 0.9.
Reported endpoint: outcome

Worked set:
1) CCCCC(CC)COC(=O)CCCCCCCCC(=O)OCC(CC)CCCC (configuration not stated)    inactive
2) CCCCCCCCO    inactive
3) CC(C)=CCC/C(C)=C/CO    inactive
4) CC(C)=CCCC(C)CCO (configuration not stated)    inactive
5) O=C(O)c1cccc(Oc2ccccc2)c1    inactive
6) COC(=O)CC(=O)OC    inactive
7) O=P(OC(CCl)CCl)(OC(CCl)CCl)OC(CCl)CCl    inactive
8) CCOCCO    inactive
9) CCOCCOCCOCCO    inactive
10) CC[C@H]1OC(=O)[C@H](C)[C@@H](O[C@H]2C[C@@](C)(OC)[C@@H](O)[C@H](C)O2)[C@H](C)[C@@H](O[C@@H]2O[C@H](C)C[C@H](N(C)C)[C@H]2O)[C@](C)(O)C[C@@H](C)C(=O)[C@H](C)[C@@H](O)[C@]1(C)O    inactive

// query outcome value for entry Cn1cnc([N+](=O)[O-])c1Sc1ncnc2nc[nH]c12 inactive

Suppose we examine the compound Cn1c(=O)c2c(ncn2C)n(C)c1=O ; what outcome value has been reported? inactive
